target or test system: Jak2 (UniProt O60674)
Sequence (O60674 whole entry, looked up): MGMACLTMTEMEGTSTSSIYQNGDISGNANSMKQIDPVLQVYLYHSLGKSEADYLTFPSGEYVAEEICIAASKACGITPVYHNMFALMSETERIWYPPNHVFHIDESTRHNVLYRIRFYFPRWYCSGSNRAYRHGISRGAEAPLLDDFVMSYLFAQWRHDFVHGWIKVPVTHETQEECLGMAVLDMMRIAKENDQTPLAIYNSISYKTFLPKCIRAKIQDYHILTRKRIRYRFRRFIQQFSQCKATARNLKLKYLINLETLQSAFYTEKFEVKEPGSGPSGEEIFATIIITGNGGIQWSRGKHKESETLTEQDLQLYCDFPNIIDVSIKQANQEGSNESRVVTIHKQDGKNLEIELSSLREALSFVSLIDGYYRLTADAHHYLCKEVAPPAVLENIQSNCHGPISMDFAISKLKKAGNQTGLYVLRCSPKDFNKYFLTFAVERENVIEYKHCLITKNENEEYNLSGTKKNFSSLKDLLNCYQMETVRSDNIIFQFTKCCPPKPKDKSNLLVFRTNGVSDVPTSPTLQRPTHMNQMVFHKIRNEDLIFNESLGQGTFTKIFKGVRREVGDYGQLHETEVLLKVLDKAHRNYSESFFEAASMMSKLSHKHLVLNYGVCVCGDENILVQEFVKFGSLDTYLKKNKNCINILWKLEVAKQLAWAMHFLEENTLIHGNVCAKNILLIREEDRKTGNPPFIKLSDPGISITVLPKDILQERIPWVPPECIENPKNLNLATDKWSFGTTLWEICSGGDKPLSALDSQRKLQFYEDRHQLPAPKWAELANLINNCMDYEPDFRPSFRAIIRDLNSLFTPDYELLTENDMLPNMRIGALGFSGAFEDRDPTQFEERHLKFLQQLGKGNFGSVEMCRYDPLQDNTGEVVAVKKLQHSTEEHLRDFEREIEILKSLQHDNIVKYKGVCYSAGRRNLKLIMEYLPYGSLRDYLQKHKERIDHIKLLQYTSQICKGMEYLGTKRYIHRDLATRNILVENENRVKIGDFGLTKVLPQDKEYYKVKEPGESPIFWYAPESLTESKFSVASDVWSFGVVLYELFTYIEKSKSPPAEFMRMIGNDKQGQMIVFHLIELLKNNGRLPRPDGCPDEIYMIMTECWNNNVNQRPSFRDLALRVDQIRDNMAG
protocol description: phosphorylation enrichment, bacterial display (enrichment ratio); higher = better substrate or ligand; peptides without Tyr show the background
# if value of phosphorylation enrichment reaches 0.7, tag Y; if it stays below, tag N

[ask] hey, is phosphorylation enrichment for this one >= 0.7? RRIHSNRGHLW [VHL_Y112_Y112N]
[reply] N

[ask] Try RSRQIYDAYIM [GRK3_Y109] next.
[reply] Y

[ask] Try GDFLSYREFHS [ERBIN_Y1107_YF] next.
[reply] N

[ask] Try ALKKPYGVLFK [RPF2_Y59_YF] next.
[reply] Y

[ask] Try NNKKDYYDMYE [SLC26A3_Y526_K521N] next.
[reply] Y

[ask] Try RPFFLYVAFHD [SGSH_Y174] next.
[reply] Y

[ask] Try NLSVRYDSSLK [ABCC8_Y1353] next.
[reply] Y

----------
target or test system: SHP2-C SH2;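 note: peptide library displayed on the E. coli surface as eCPX fusions, selected cells deep-sequenced, score is each peptide's frequency after selection divided by its frequency in the input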
protocol description: SH2 binding enrichment of the phosphorylated peptide, bacterial display (enrichment ratio); higher = better substrate or ligand; peptides without Tyr show the background
# if value of SH2 binding enrichment reaches 0.7, tag y; if it stays below, tag n

[ask] hey, is SH2 binding enrichment for this one >= 0.7? ITKNPYDPPGR
[reply] n

[ask] Try DMLFQYLKQIE [RPAP3_Y569_YF] next.
[reply] y

[ask] Try ETWHNYHKFDS [MATR3_Y243_S240W] next.
[reply] y

[ask] Try GDFLSYREFHS [ERBIN_Y1107_YF] next.
[reply] n

[ask] Try PRDSGYSFETI [MAP1B_Y1921_S1917R_YF] next.
[reply] y

[ask] Try AEDKPYAELWM [MPI_Y46] next.
[reply] y

[ask] Try NFATLHLKIYH [PDE6B_Y219_Y219H] next.
[reply] y

[ask] Try RHNEIYEIKVD [LGR5_Y387] next.
[reply] n

[ask] Try ADKAAYLQSLN [MYH2_Y389] next.
[reply] y

[ask] Try ARQEEYSAMRD [KRAS_Y64_G60R] next.
[reply] y

[ask] Try IGKDLYANNVL [ACTA2_Y296_R292G] next.
[reply] n

[ask] Try MICSAYALGGL [CPS1_Y590_R587C] next.
[reply] n

[ask] Try EQRRAYLEGTC [HLA-C_Y183_L180R] next.
[reply] y

[ask] Try FTRNYYVWAVL [CYBA_Y88_R90W] next.
[reply] y

[ask] Try FTGVEYSSCDT [EPHA3_Y937] next.
[reply] y

[ask] Try RGKDNYETSQL [SPP1_Y225_S224N] next.
[reply] n

[ask] Try QQLVAYYSKHA [SRC_Y232] next.
[reply] n

[ask] Try YNNYGYGSDGF [HNRNPH3_Y161_N163S] next.
[reply] n

[ask] Try DSSIRYLQEIH [FGG_Y135_Y140H] next.
[reply] n

[ask] Try FASVEYQEALS [GALNS_Y461_A459V] next.
[reply] y

[ask] Try HAVVDYMRRQK [ATM_Y1915_L1910H] next.
[reply] n

[ask] Try EGDGVYTLNNK [HP_Y125_E130K] next.
[reply] n

[ask] Try HKLSFCEFDFE [BTK_Y40_Y40C_YF] next.
[reply] y

[ask] Try YLENYYDLKKD [MMP3_Y42] next.
[reply] y

[ask] Try GVKLTYGDAQN [SLC28A1_Y404] next.
[reply] n

[ask] Try AEEEIYGIFGA [SRCtide_2014] next.
[reply] n

[ask] Try MDFRSYPHEFG [RBM10_Y44_R46H_YF] next.
[reply] y

[ask] Try FGLTLYPNSRE [MEP1A_Y472_V469L] next.
[reply] y

[ask] Try ALPGEYIPTVF [RAC1_Y32_F28L] next.
[reply] n

[ask] Try VSNFNYFYHRE [KCNA1_Y413] next.
[reply] y

[ask] Try YCRHNYGVGES [HLA-DRB1_Y112_V115G] next.
[reply] y

[ask] Try VAVTKYCKEEL [ATP7B_Y1078] next.
[reply] y

[ask] Try CLAKMYYSAVE [CP_Y539_D544E] next.
[reply] y

[ask] Try MDYRSYPHEYG [RBM10_Y44_R46H] next.
[reply] y

[ask] Try TVQIMYGCDVG [HLA-A_Y123_I119V] next.
[reply] n

[ask] Try QFNPEYVQQAS [LRRC7_Y1058_H1054Y_YF] next.
[reply] n

[ask] Try NTQRPYYKGGG [TYROBP_Y111] next.
[reply] y

[ask] Try DEEEEYEFMNR [ERBB3_Y1197_D1194E_YF] next.
[reply] y

[ask] Try VIIVLYFSLWK [SLC6A2_Y249_V245I] next.
[reply] y

[ask] Try VNYGAYINNFK [GLB1_Y488_D491N] next.
[reply] y

[ask] Try FCIDHYLGKEM [G6PD_Y202_R198C_YF] next.
[reply] y

[ask] Try EPTPGYEVGQR [TSC2_Y1788] next.
[reply] n

[ask] Try FYDANYDGKEY [MAPRE2_Y162] next.
[reply] n

[ask] Try SRIWVYNHFRC [BRCA2_Y2621_W2626C_YF] next.
[reply] n

[ask] Try HRAVEYLLTGI [RAD23A_Y197] next.
[reply] y

[ask] Try QNRELYSEGLG [CNKSR1_Y665] next.
[reply] n

[ask] Try ALKKPYGVLFK [RPF2_Y59_YF] next.
[reply] y

[ask] Try FYVVRYCWLRR [MPZ_Y181] next.
[reply] n

[ask] Try LVRAFYCERRR [CARD11_Y970] next.
[reply] n

[ask] Try NLSVRYDSSLK [ABCC8_Y1353] next.
[reply] y

[ask] Try HRDSSYYWEIE [RAF1_Y340_Q335H] next.
[reply] y

[ask] Try SFCFRYCCAAR [SUMF1_Y344_R345C_YF] next.
[reply] y

[ask] Try NALVQYQEMEK [BBS4_Y395_A393V] next.
[reply] y
